biological target: T1, recombinant human PCSK9 (human, UniProt Q8NBP7 31-692); assay: TR-FRET in solution at neutral pH: biotinylated human PCSK9 (30 nM) binding to Europium labeled LDLR extracellular domain (10 nM) blocked by the mAb
T1 construct: also called hPCSK9
T1 sequence (Q8NBP7 31-692 limits assumed): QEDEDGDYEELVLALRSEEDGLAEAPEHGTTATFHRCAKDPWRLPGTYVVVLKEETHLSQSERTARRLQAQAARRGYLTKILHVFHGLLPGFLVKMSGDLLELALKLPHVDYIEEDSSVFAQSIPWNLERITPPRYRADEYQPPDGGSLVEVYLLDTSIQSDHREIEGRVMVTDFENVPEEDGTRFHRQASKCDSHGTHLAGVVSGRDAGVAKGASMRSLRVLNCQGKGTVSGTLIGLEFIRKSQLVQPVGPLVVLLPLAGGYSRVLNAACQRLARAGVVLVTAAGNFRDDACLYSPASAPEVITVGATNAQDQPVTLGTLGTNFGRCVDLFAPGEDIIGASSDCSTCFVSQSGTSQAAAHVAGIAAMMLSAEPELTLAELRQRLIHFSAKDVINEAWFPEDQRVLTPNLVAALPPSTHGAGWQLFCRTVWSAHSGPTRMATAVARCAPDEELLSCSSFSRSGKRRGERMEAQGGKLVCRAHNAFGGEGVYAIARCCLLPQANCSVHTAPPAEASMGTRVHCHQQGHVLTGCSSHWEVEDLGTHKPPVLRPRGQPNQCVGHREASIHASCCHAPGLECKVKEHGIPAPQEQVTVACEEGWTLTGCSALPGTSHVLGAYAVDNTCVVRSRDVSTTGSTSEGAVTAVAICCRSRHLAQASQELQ
Reported pIC50 values follow for various binders
pIC50 here is simply -log10 of the concentration when that concentration is written in mol/L.

Binder	pIC50
anti-PCSK9 antagonist monoclonal antibody 7D4 (antibody, V domains shown, Murine full-length IgG from a hybridoma; also called 7D4.4 (subclone); ATCC PTA-8983) VH: EVKLVESEGGLVQPGSSMKLSCTASGFTFSDYYMAWVRQVPEKGLEWVANINYDGSNTSYLDSLKSRFIISRDNAKNILYLQMSSLKSEDTATYYCAREKFAAMDYWGQGTSVTVSS VL: DIVMTQSHKFMSTSFGDRVSITCKASQDVSNALAWYQQKPGHSPKLLIFSASYRYTGVPDRFTGSGSGTDFTFTISSVQAEDLAVYYCQQHYSTPWTFGGGTKLEIKR	8.27
anti-PCSK9 antagonist monoclonal antibody 6F6 (antibody, V domains shown, Murine full-length IgG from a hybridoma; also called 6F6.G10.3 (subclone); ATCC PTA-8984) VH: EVQLQQSGPELVKPGASVKISCKASGYTFTDYYMNWVKQSHGKSLEWIGDINPNNGGTSYNQKFKGKATLTVDKSSSTAYMELRSLTSEDSAVYYCAGGGIYYRYDRNYFDYWGQGTTLTVSS VL: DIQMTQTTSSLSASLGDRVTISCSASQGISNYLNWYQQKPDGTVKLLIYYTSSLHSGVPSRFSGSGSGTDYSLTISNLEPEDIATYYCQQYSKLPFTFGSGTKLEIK	8.19

Prompt: Query pIC50 for anti-PCSK9 antagonist monoclonal antibody 5A10 (antibody, V domains shown, Murine full-length IgG from a hybridoma; Mouse precursor of L1L3; also called 5A10.B8 (subclone)) VH: QVQLQQPGAELVKPGASVKLSCKASGYTFTSYWMHWVKQRPGQGLEWIGEINPSNGRTNYNEKFKSKATLTVDKSSSTAYMQLSSLTSEDSAVYYCARERPLYAMDYWGQGTSVTVSS VL: DIVMTQSHKFMSTSVGDRVSITCKASQDVSTAVAWYQQKPGQSPKLLIYSASYRYTGVPDRFTGSGSGTDFTFTISSVQAEDLAVYYCQQRYSTPRTFGGGTKLEIKR
Completion: 8.22

Just for reference, patent US20100068199A1 is where these values come from.
